subject of test: isolated kinase domain of the human FLT3 receptor (a.a. 571-993) (Homo sapiens, UniProt P36888)
Construct: human FLT3 receptor (a.a. 571-993)
assay remarks: FLT3 fluorescence polarization kinase assay
cond: 150 uM ATP; uncertainty ±10%
hey, just use 1 if measured IC50 is less than 60 nM, otherwise -1

molecule	label class
O=C(Nc1ccc(N2CCOCC2)cc1)N1CCC(c2ncnc3cc(N4CCOCC4)ccc23)CC1 [Example 145]	-1
O=C1CCCN1CCOc1ccc2c(C3CCN(C(=O)Nc4cnc(N5CCCC5)nc4)CC3)ncnc2c1 [Example 84]	1
CC(C)Oc1ccc(NC(=O)N2CCC(c3ncnc4cc(OCC5CCN(C)CC5)ccc34)CC2)cc1 [Example 93]	1
O=C(Nc1ccc(N2CCCC2)cc1)N1CCC(c2ncnc3cc(Oc4cccnc4)ccc23)CC1 [Example 174]	1
COc1cc2ncnc(C3CCN(C(=O)Nc4ccc(C(C)O)cc4)CC3)c2cc1OC (centres unmarked) [Example 55]	-1
O=C1CCCN1CCCOc1ccc2c(C3CCN(C(=O)Nc4cnc(N5CCCC5)nc4)CC3)ncnc2c1 [Example 90]	-1
CC(C)Oc1ccc(NC(=O)N2CCC(c3ncnc4cc(OCCN5CCOC5=O)ccc34)CC2)cc1 [Example 79]	1
O=C(Nc1ccc(N2CCCC2)cc1)N1CCC(c2ncnc3cc(O[C@H]4CCOC4)ccc23)CC1 [Compound 190]	-1

* * *

subject of test: wild-type FLT3 receptor (Homo sapiens, UniProt P36888)
Sequence (P36888 27-993): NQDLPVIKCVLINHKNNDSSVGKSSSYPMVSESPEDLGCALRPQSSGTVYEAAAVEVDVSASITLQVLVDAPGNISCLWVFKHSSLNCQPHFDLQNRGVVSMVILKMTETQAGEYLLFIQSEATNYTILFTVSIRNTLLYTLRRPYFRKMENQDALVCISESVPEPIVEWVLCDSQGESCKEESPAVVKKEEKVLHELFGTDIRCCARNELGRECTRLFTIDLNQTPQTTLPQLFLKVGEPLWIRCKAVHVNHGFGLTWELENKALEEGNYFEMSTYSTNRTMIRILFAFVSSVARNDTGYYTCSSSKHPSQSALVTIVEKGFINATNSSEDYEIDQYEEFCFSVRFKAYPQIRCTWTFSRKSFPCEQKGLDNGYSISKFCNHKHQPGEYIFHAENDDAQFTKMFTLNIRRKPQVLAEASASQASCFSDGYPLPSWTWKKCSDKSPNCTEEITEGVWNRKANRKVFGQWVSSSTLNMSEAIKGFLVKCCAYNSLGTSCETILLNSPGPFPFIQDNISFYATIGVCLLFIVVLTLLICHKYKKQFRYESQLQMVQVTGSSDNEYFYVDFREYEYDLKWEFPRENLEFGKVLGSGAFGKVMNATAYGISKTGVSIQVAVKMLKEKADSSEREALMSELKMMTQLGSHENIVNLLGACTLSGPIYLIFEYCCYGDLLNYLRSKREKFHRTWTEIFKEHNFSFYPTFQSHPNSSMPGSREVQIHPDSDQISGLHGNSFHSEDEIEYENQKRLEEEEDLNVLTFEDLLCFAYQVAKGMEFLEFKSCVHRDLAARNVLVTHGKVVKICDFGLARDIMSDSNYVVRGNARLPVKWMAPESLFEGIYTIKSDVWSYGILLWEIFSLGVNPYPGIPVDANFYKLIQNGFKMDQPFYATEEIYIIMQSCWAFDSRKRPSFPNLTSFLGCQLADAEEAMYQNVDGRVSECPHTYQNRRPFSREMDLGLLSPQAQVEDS
assay remarks: Cell-based FLT3 receptor ELISA (FLT ligand-induced phosphorylation in Baf3 FLT3 cells)
cond: 100 ng/mL Flt ligand, uncertainty ±20%
pIC50: −log10 of the molar value.
The entries below come with measured pIC50 values attached.

compound structure	pIC50
COCCCOc1ccc2c(C3CCN(C(=O)Nc4ccc(N5CCOCC5)cc4)CC3)ncnc2c1	7.70
O=C(Nc1ccc(N2CCOCC2)cc1)N1CCC(c2ncnc3cc(N4CCOCC4)ccc23)CC1	7.85
COc1cc2ncnc(C3CCN(C(=O)Nc4ccc(C5CCNCC5)cc4)CC3)c2cc1OC	6.45
O=C(Nc1ccc(N2CCCC2)cc1)N1CCC(c2ncnc3cc(N4CCNC4=O)ccc23)CC1	8.40

* * *

subject of test: wild-type FLT3 receptor (Homo sapiens)
assay remarks: Cell-based FLT3 receptor ELISA (FLT ligand-induced phosphorylation in Baf3 FLT3 cells)
cond: 100 ng/mL Flt ligand, uncertainty ±20%
pIC50: −log10 of the molar value.
measured endpoint: pIC50

compound structure	comparison sign	recorded measurement
CCN(CC)CCCOc1ccc2c(C3CCN(C(=O)Nc4ccc(OC(C)C)cc4)CC3)ncnc2c1	=	7.74
COCCN1CCN(c2ccc3c(C4CCN(C(=O)Nc5ccc(N6CCCC6)cc5)CC4)ncnc3c2)CC1	=	8.52
COc1cc2ncnc(C3CCN(C(=O)Nc4ccc(Cl)cc4)CC3)c2cc1OC	<	5.52
CN1CCN(CCCOc2cc3ncnc(C4CCN(C(=O)Nc5ccc(N6CCOCC6)cc5)CC4)c3cc2F)CC1	=	8.22
CC(C)Oc1ccc(NC(=O)N2CCC(c3ncnc4cc(OCCCOS(C)(=O)=O)ccc34)CC2)cc1	=	6.93
CN1CCN(CCCOc2ccc3c(C4CCN(C(=O)Nc5ccc(N6CCCC6)cc5)CC4)ncnc3c2)CC1	=	9.40
COc1cc2ncnc(C3CCN(C(=O)Nc4ccc(OC5CCC5)nc4)CC3)c2cc1OC	=	6.53
O=C(Nc1ccc(N2CCCC2)cc1)N1CCC(c2ncnc3cc(OCCO)ccc23)CC1	=	8.70

* * *

subject of test: isolated kinase domain of the human FLT3 receptor (a.a. 571-993) (Homo sapiens)
Construct: human FLT3 receptor (a.a. 571-993)
assay remarks: FLT3 fluorescence polarization kinase assay
cond: 150 uM ATP; uncertainty ±10%
pIC50: −log10 of the molar value.
Below, each entry is listed with its recorded pIC50.
measured endpoint: pIC50

compound structure	measured endpoint	recorded measurement
O=C(Nc1ccc(N2CCCC2)cc1)N1CCC(c2ncnc3cc(N4CCOCC4)c(F)cc23)CC1	pIC50	7.68
COc1cc2ncnc(C3CCN(CC(=O)Nc4ccc(OC(C)C)cc4)CC3)c2cc1OC	pIC50	7.38
O=C(Nc1ccc(N2CCOCC2)cc1)N1CCC(c2ncnc3cc(OCCCN4CCCCC4)ccc23)CC1	pIC50	7.31
O=C(Nc1ccc(N2CCOCC2)cc1)N1CCC(c2ncnc3cc(OCCCN4CCOCC4)ccc23)CC1	pIC50	8.70
CC(C)Oc1ccc(NC(=O)N2CCC(c3ncnc4cc(Cl)ccc34)CC2)cc1	pIC50	6.82
COc1cc2ncnc(C3CCN(C(=O)Nc4ccc5c(c4)CCO5)CC3)c2cc1OC	pIC50	5.70
O=C(Nc1ccc(N2CCOCC2)cc1)N1CCC(c2ncnc3cc(N4CCNCC4)ccc23)CC1	pIC50	7.35
O=C(Nc1ccc(N2CCCC2)cc1)N1CCC(c2ncnc3cc(N4CCSCC4)ccc23)CC1	pIC50	7.96

* * *

// values below are reported pIC50
subject of test: wild-type FLT3 receptor (Homo sapiens, UniProt P36888)
Construct: host or cells: Baf3 (murine B cell lymphoma line), stably transfected
assay remarks: Cell-based FLT3 receptor ELISA (FLT ligand-induced phosphorylation in Baf3 FLT3 cells)
cond: 100 ng/mL Flt ligand, uncertainty ±20%
pIC50: −log10 of the molar value.
measured endpoint: pIC50

compound structure	subject of test	measured endpoint	recorded measurement
CC(C)Oc1ccc(NC(=O)N2CCC(c3ncnc4cc(OCC5CCN(C)CC5)ccc34)CC2)cc1	wild-type FLT3 receptor (Homo sapiens, UniProt P36888)	pIC50	9.00
CN1CCN(c2ccc3c(C4CCN(C(=O)Nc5ccc(N6CCCC6)cc5)CC4)ncnc3c2)CC1=O	wild-type FLT3 receptor (Homo sapiens, UniProt P36888)	pIC50	7.01
CS(=O)(=O)N1CC(Oc2ccc3c(C4CCN(C(=O)Nc5ccc(N6CCCC6)cc5)CC4)ncnc3c2)C1	wild-type FLT3 receptor (Homo sapiens, UniProt P36888)	pIC50	8.00
CS(=O)(=O)N1CCN(CCCOc2ccc3c(C4CCN(C(=O)Nc5ccc(N6CCCC6)cc5)CC4)ncnc3c2)CC1	wild-type FLT3 receptor (Homo sapiens, UniProt P36888)	pIC50	7.96
